Listed below: half-life at 5 μM values for each entry.
Test: In vitro metabolic stability in mouse liver microsomes
Settings: tissue homogenate, pH 7.4
Protocol: 1. Aqueous kinetic solubility. […] 3. In vitro mouse microsomial stability. […] microsomes (Sekisui Xenotech, LCC), 0.1M Tris-HCl buffer (pH 7.4), and 10% DMSO. The final […] After pre-incubation, the cofactors (NADPH, G6P, G6PDH, MgCl2 pre-dissolved in 0.1M Tris-HCl) were added to the incubation mixture and the incubation was continued at 37 °C for 1h. […] quantified by LC-MS/MS. […] to t=0 was calculated. The half-lives (t½) were determined by a one-phase decay equation using a […]
Field format: number, assumed min, no unit text.

Record excerpt, results attached:
Tell me half-life at 5 μM reported for CCCCCCNc1ccc(C(=O)O)cc1S(=O)(=O)NC [Compound 20]
29

Return the recorded half-life at 5 μM value; entry: CCCCNc1ccc([N+](=O)[O-])cc1S(N)(=O)=O [Compound 5]
6

Now for a further compound.
Write down half-life at 5 μM measured for item CCCCCCCCNc1ccc(C(=O)O)cc1S(N)(=O)=O [Compound 17, 4-(Octylamino)-3-sulfamoyl-benzoic Acid]
18

* * *

experiment: Aqueous kinetic solubility in PBS pH 7.4; type: physicochemical; details: phosphate buffered saline (PBS); aqueous kinetic solubility from 10 mM DMSO solution in PBS pH 7.4; target concentration 250 μM (final DMSO 2.5%)
Listed here: items and their measured log10(solubility at 24 h).
All values: base-10 log of solubility at 24 h in µM.

Give the reported log10(solubility at 24 h) for this compound. COc1cc(NCCCCCCCC(F)(F)F)c(S(=O)(=O)N(C)C)cc1C(=O)O [Compound 41]
2.27

Consider the compound CN(C)S(=O)(=O)c1cc(C(=O)O)ccc1NCCCC(F)(F)F [Compound 27] . State its measured log10(solubility at 24 h).
2.39

***
Return the recorded log10(solubility at 24 h) value; entry: CCCCNc1ccc([N+](=O)[O-])cc1S(N)(=O)=O [Compound 5]
1.93

Complete the entry with log10(solubility at 24 h) for CNS(=O)(=O)c1cc(C(=O)O)ccc1NCCCCCCCC(F)(F)F [Compound 32]
2.38

Entry COCCCCNc1ccc(C(=O)O)cc1S(=O)(=O)N(C)C [Compound 30] needs its log10(solubility at 24 h) filled in; supply it.
2.39

* * *

Reported inhibition at 100 µM by item:
Target: NKCC1 (Homo sapiens)
Construct: host or cells: HEK293
Sequence (P55011 1-1212): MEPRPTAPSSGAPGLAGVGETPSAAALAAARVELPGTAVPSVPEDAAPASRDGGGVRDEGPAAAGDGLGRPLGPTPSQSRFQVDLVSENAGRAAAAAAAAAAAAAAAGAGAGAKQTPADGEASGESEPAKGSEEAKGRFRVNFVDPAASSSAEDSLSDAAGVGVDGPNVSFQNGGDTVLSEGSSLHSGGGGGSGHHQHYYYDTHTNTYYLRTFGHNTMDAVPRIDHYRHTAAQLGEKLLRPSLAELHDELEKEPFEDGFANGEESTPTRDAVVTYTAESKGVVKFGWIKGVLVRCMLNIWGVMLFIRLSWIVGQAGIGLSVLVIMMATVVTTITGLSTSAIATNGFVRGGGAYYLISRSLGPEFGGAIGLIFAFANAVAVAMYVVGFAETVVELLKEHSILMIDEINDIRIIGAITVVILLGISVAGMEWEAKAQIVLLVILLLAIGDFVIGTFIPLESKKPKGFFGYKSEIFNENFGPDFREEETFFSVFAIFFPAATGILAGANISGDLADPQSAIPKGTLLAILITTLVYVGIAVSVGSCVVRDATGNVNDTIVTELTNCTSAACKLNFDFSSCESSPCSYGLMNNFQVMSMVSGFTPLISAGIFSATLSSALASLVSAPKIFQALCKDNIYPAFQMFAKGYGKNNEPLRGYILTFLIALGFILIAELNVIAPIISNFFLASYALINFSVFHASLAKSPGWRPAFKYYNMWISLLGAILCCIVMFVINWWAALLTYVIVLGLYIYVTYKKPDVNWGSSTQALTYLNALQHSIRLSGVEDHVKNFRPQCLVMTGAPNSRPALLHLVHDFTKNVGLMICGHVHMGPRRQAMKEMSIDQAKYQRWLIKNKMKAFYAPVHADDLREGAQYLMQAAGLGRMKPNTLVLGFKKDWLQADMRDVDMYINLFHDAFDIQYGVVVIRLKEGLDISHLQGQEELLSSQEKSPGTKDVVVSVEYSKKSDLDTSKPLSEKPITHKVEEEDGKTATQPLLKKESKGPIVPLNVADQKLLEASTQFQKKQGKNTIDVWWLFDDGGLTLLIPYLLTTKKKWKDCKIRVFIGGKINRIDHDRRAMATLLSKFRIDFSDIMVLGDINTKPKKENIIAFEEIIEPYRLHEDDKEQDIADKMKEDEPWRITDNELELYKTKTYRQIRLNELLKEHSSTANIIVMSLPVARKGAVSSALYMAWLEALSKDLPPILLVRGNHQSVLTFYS
Assay: Cl- influx assay in NKCC1-transfected HEK293 cells
Assay type: cell-based
Details: HEK293, read-out: Inhibition 100 μM Cl- influx (%)
Give just the numeric value; % need not be written.

Give a short answer stating reported inhibition at 100 µM for "CCCCCCNc1ccc(C(=O)O)cc1S(=O)(=O)N(C)C" .
19.8

Answer with the recorded inhibition at 100 µM of "CCCCCCCCNc1ccc(C(=O)O)cc1S(=O)(=O)NC" only.
20.1

Provide only the value of recorded inhibition at 100 µM for "CCCCNc1ccc([N+](=O)[O-])cc1S(N)(=O)=O"
4.7

Let me know recorded inhibition at 100 µM for "CCCCCCNc1ccc([N+](=O)[O-])cc1S(N)(=O)=O" , thanks.
3.8

Quickly give me recorded inhibition at 100 µM for "CCCCNc1ccc(C(=O)O)cc1S(=O)(=O)N(C)C"
15.6

New cases:
Item "CNS(=O)(=O)c1cc([N+](=O)[O-])ccc1NCCC(C)(C)C" : provide inhibition at 100 µM
28.7
